amyloid nucleation score values for the substances below.
Experiment: amyloid nucleation score (Sup35N fusion, yeast selection) (log enrichment); library NNK1; higher = more nucleation; inactive = no reads after selection;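 also: zero at mode of non-aggregating sequences after 7 days selection at 30°C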
quantity.measured: amyloid nucleation score

INSERT INTO assay_data (substance, endpoint_result) VALUES
  ('YNFFGCVCDAPPPKCLVYFM', 7.6),
  ('ACTYYIWVLSCAGPRAGGKE', 7.26),
  ('PLSILRKMAGVVSGCTAPTS', 0.663),
  ('HTHESNRPHYYCGADCLPKD', 2.71),
  ('ILGLSRGQ', 0.015),
  ('GRKRYKRATHH', -0.593),
  ('SVPVQD', 0.633),
  ('PNTYGGIMECYV', -0.233),
  ('IPARTESDTRYMSMCGSNNQ', -0.317),
  ('YNRIIYYCGVM', 0.782),
  ('KVVSGA', 0.879),
  ('LAEVQRKTR', -0.291),
  ('NFACVFTSTSRMCRH', 3.85),
  ('FAGSSGRCTPGSGFQGSIVT', -0.167),
  ('GPDRCDRWEPRCCAKSRRER', -0.061),
  ('KPDSMFDFER', -0.675),
  ('WGNLCRNYD', 0.004),
  ('DNSLYE', -2.11),
  ('MDTFSIMTYLAWQSNELLLI', 1.22),
  ('KGRSCLGRLRLVGQMRPKYN', 0.366),
  ('QYSHDRRFLPGMVHVRLFLE', 0.662),
  ('LRKCSLAVPYGLRLVYLRKE', 0.14),
  ('VKALGHLRPTWLEKGCNHA', 0.289),
  ('MLGCFISFTIKLLG', 1.39),
  ('MSMMLTRIAHTLSESWRTHW', -0.09),
  ('VGCFLIKSGEQ', -0.385),
  ('KRPHGDH', 0.416),
  ('NPRVNNYRVNGWKRGIRDRA', 0.66),
  ('IHWANPLTVSAFKVWVEDMV', 0.256),
  ('IEESSWLLDFRSGSALSEVS', -0.542),
  ('IPRYCRRNMADSAIV', 0.923),
  ('FCNTLCAFW', 1.91),
  ('YLRKIRVLNMGAAAEKALLG', 0.641),
  ('CLMLAGRFIC', -0.422),
  ('SYGHLRAFFEDCSH', -0.145);

====

Assay: amyloid nucleation score (Sup35N fusion, yeast selection) (log enrichment); library NNK1; higher = more nucleation; inactive = no reads after selection
Yes means recorded amyloid nucleation score is 0.1 or above; No means it is below 0.1.

INSERT INTO measurements (chain_sequence, class_name) VALUES
  ('YGDGMGPWCYCWAFAEPRRS', 'Yes'),
  ('HWSSFPNVLYIM', 'No'),
  ('SSILDHLAAFVRRWFVYALL', 'No'),
  ('FLLNSPQNASYSPHRRLAFD', 'No'),
  ('DYAFKFCFQLVDKAYRSLSY', 'No'),
  ('MGGSCTSEQYCDWANYGDVL', 'Yes'),
  ('LVVHTVRVQDR', 'No'),
  ('LCTDCLSGTVSDCRMFSHNR', 'No'),
  ('IMLVYMKTLGTM', 'Yes'),
  ('LGKNFLYISCSLTDQGAGLH', 'Yes'),
  ('SACLQVWE', 'Yes'),
  ('VKNWMYWQGMSVCRVCRGFY', 'Yes'),
  ('VPMPGNDQWDGKRGYICIRS', 'Yes'),
  ('LFFQPLVLFKKRLEYCFRLL', 'Yes'),
  ('THKFLRTRTYFMSVRSVNYW', 'Yes'),
  ('SFMVFYNLVCLHMMSNFVAL', 'Yes'),
  ('FSCSTCNVCNERHPEVFTYD', 'Yes'),
  ('PRIRSPEMDVMSPPNFLWGL', 'Yes'),
  ('DLWWGRVRYG', 'Yes'),
  ('YDHCEGCWMSNRMWELGWKG', 'No'),
  ('YTMRGASRSTTDLLKIMIYM', 'No'),
  ('RMVIMLMGTHDRPFWGITGS', 'Yes'),
  ('HRVVSVRRCMKHPLSMERVA', 'Yes'),
  ('MVCLVVSFGQCASTVFLFHL', 'Yes'),
  ('IRGFSSSISLWWVDGTVANV', 'No'),
  ('AYLGASREIYCYGPMYYMLP', 'Yes'),
  ('VDTLLARIIRLRHQFSNTAV', 'Yes'),
  ('NLCRSNTRVQNAKKCAL', 'No'),
  ('TSVTSVMWPYSPNGYLAVFR', 'No'),
  ('SHGSTLLARYCRINGWPATP', 'No'),
  ('VSPSIRMGNQGSSFSVLNAL', 'Yes'),
  ('IMARCIVFKPG', 'Yes'),
  ('GVDHIGLGTEEYNQSYLGSG', 'No');
